study_system: human ApoC3 (huApoC3), native protein purified from human serum (human, UniProt P02656 21-99)
Sequence (P02656 21-99): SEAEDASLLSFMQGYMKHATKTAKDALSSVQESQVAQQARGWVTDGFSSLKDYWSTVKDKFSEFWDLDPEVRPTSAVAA
assay_info: cell-based or functional assay
observed_property: EC50, attenuation of ApoC3-mediated LPL inhibition (NEFA production)

The binder listed as 13G7 IgG1 (antibody, V domains shown) VH: QVQLQESGPGLVKPSQTLSLTCTVSGGSISTTAPAWGWIRQSPGKGLDWMAVIAFDGSAYYSPSLKSRTLISRDTSKNQFSLQLSSVTPEDTAVYYCARLGGRNYPPYVELWGQGTLVTVSS VL: QPVLTQPPALSVTLGQTAKITCQGGSLRVSYAHWYQQKPGQAPVLVSYDDDSRPSGIPERFSGSGSGATATLTISGAQAEDEGDYYCQSADSSGDNWVFGGGTHLTVL shows EC50, attenuation of ApoC3-mediated LPL inhibition (NEFA production) equal to ~3 µM
